System: L1210
assay: Molar concentration required to reduce the number of L1210 cells by 50% after incubation for 2 days
Assay type: functional, Mus musculus
condition parameters: read-out: ID50 (the source's name)
pIC50: −log10 of the molar value.
Measured pIC50 accompanies every entry in the list below.
endpoint label: pIC50

[[record]]
substance_smiles = "CC(=O)O.COc1cc(NCc2ccc3nc(N)nc(N)c3c2C)cc(OC)c1OC.O"
tested_system = "L1210"
endpoint_label = "pIC50"
numeric_result = 7.70

[[record]]
substance_smiles = "CC(=O)O.Nc1nc(N)c2cc(CNc3cccc(Cl)c3)ccc2n1.O.O"
tested_system = "L1210"
endpoint_label = "pIC50"
numeric_result = 7.15

[[record]]
substance_smiles = "CC(=O)O.Nc1nc(N)c2cc(CN(N=O)c3ccc(Cl)c(Cl)c3)ccc2n1.O"
tested_system = "L1210"
endpoint_label = "pIC50"
numeric_result = 7.15

[[record]]
substance_smiles = "Nc1nc(N)c2cc(CN(C=O)c3ccc4cc(Cl)ccc4c3)ccc2n1"
tested_system = "L1210"
endpoint_label = "pIC50"
numeric_result = 6.82

[[record]]
substance_smiles = "CC(=O)O.COc1cc(NCc2ccc3nc(N)nc(N)c3c2)cc(OC)c1OC.O"
tested_system = "L1210"
endpoint_label = "pIC50"
numeric_result = 7.06

[[record]]
substance_smiles = "CC(=O)O.Cc1c(CNc2cccc(Br)c2)ccc2nc(N)nc(N)c12.O"
tested_system = "L1210"
endpoint_label = "pIC50"
numeric_result = 8.43

[[record]]
substance_smiles = "Cc1c(CN(C=O)c2ccc(Cl)c(Cl)c2)ccc2nc(N)nc(N)c12"
tested_system = "L1210"
endpoint_label = "pIC50"
numeric_result = 7.59

[[record]]
substance_smiles = "CC(=O)O.Nc1nc(N)c2cc(CNc3ccc(Cl)cc3)ccc2n1.O.O"
tested_system = "L1210"
endpoint_label = "pIC50"
numeric_result = 7.46

[[record]]
substance_smiles = "CC(=O)O.Cc1c(CNc2ccc(Cl)c(Cl)c2)ccc2nc(N)nc(N)c12"
tested_system = "L1210"
endpoint_label = "pIC50"
numeric_result = 8.37

[[record]]
substance_smiles = "Cc1c(CN(N=O)c2ccc(Cl)c(Cl)c2)ccc2nc(N)nc(N)c12"
tested_system = "L1210"
endpoint_label = "pIC50"
numeric_result = 7.00

